testDescription: clinical
particulars: human, in vivo, other: aerosol spray, 20 mg
Description: Elimination rate constant in human at 20 mg using aerosol spray measured for 6 weeks
recordedMetric: k el at 1008 h (s⁻¹)
Numbers only here, please. The scale is s⁻¹.

Supply k el at 1008 h value. Item: "C=C(C)[C@@H]1CCC(C)=C[C@H]1c1c(O)cc(CCCCC)cc1O" 0.000119

====

recordedMetric: pKi
Just so you know, pKi here is -log10 of the concentration in molar units; reply with that number alone.

Specify the recorded pKi for "C=C(C)[C@@H]1CCC(C)=C[C@H]1c1c(O)cc(CCCCC)cc1O" , system: UniProtKB P18089. 5.49

====

assayedSystem: Cytochrome P450 3A5 (Homo sapiens)
Sequence (P20815 whole entry): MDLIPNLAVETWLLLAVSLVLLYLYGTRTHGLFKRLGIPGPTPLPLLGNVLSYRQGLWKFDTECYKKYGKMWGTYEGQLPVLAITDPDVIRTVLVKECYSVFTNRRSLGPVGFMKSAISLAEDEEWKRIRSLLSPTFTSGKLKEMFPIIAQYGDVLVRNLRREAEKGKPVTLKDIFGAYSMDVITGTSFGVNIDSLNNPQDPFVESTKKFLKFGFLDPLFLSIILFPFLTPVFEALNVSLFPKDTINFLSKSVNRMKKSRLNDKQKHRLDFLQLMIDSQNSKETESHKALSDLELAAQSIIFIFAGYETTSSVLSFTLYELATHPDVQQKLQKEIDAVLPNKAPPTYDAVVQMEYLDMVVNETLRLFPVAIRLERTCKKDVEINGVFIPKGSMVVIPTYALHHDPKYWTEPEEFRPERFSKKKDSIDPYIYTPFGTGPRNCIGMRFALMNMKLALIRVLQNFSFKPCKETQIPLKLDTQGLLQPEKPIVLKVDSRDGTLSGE
testDescription: Competitive inhibition of human recombinant CYP3A5 expressed in baculovirus-infected insect cells using diltiazem as substrate incubated for 15 mins followed by NADPH-generating system addition by Michaelis-Menten plot analysis
recordedMetric: pKi
Just so you know, pKi here is -log10 of the concentration in molar units; reply with that number alone.

Supply pKi value. Item: "C=C(C)[C@@H]1CCC(C)=C[C@H]1c1c(O)cc(CCCCC)cc1O" 6.72
